Target system: human IL-12Rβ1, Acro (BLI analyte) (human, UniProt P42701 24-545)
Procedure text: BLI (Octet), antibody on AHC tip
pKd: −log10 of the molar value.
Readings of pKd for the listed binders

{"Binder": "DGL495 (bispecific antibody, V domains shown) V domain 1: EVQLVESGGGLVQAGGSLRLSCAASGLTFRNYAMAWFRQAPGKEREFVAGITWGGGLTHYVDSVKGRFTISRDNGKNTVYLQMNSLKSEDTAVYYCAGKTQGSTWYHLTPDGYDYWGQGTQVTVEP V domain 2: QVQLVESGGGLVQPGGSLRLSCAASGFTFSNYAMSWVRQAPGKGLEWVSAINSDGTSTSYADSVKGQFTISRDNAKNTLYLQMNSLKPEDTAVYYCTKWEGDTDSDYKFKDYWGQGTQVTVEP", "pKd": 7.97}
{"Binder": "DGL514 (bispecific antibody, V domains shown, 97B1 x 67B2) V domain 1: QVQLVESGGGLAQAGGSLRLSCAASGRTFSNDDMAWFRQAPGKEREFVAHIDRNAASTNYADSVKGRFTISRDNAKNTVYLQMTRLKPEDTAVYYCAADPDHFGTTWYQQYTYWGPGTQVTVEP V domain 2: QVQLVESGGGLVQPGGSLRLSCAASGFTFSNYAMSWIRQGPERGFEWVSRINSGGGTTSYADSVKGRFTISRDNAKNTLYLQMNSLKPEDTAVYYCAKHSHPDYSSNYYRPGQGTQVTVEP", "pKd": 8.01}
{"Binder": "DGL482 (bispecific antibody, V domains shown, 67B1 x 64B2) V domain 1: QVQLVESGGGLVQAGGSLRLSCAASARIFNSYAVAWFRQTPGKEREFVASISWSGGSTNYADSVKGRFTISRDNAKNTVFLQMNSLKPADTAVYYCAADRNYYPSVLGKYTYWGQGTQVTVEP V domain 2: QVQLVESGGGLVQPGGSLRLSCAASGFTFSSKAMHWFRQAPGKGLEWVSSINSGGAITYYKDSVKGRFTVSRDNAKNILYLEMNSLKPEDTALYYCATDTDGRTRGQGTQVTVEP", "pKd": 8.17}
